# System: SNB-19 CNS
# Run description: NCI-60 one-dose screen, 48 h (100 = growth as untreated, 0 = no growth, -100 = all killed)
# Condition notes: 10 µM unless noted
The panel holds about 83,000 compounds, 20% with a hit somewhere; the sample as a whole holds those more often.
Assay metric: growth (%)
Numbers only, in %.

Example entries begin here.
Compound: CC(C)[C@@]12C[C@@H](OC(=O)C3CO3)[C@@](C)(O1)[C@@H]1CC[C@@H](C)[C@H]1[C@@H]2OC(=O)/C=C/c1ccccc1 (stereo not given in full)
growth (%): 94.4
//
Compound: O=C(NCCN1CCCC1)n1cc(-c2ccncc2)c(-c2cc(O)cc(Cl)c2)n1
growth (%): 98.5
//
Compound: Cc1ccc2c(C)c3c(ccc4ccccc43)c[n+]2c1
growth (%): 24
//
Compound: CCc1c(C)c2ccc(O)c(-c3cc(-c4ccccc4)c(C#N)c(=O)[nH]3)c2oc1=O
growth (%): 108
//
Compound: CN1C(=O)C(C2=NNC(c3ccccc3C(=O)O)C2)C(=O)N(C)C1=O (stereo not given)
growth (%): 92.9
//
Compound: COc1cc2c(c(OC)c1O)C(=O)C(OC)C(c1ccc(O)c(O)c1)O2 (stereo not given)
growth (%): 21
//
Compound: CCOc1cc(/C=N\NC(=O)C[N+](C)(C)C)ccc1O
growth (%): 117
//
Compound: COc1cc(C2C(C#N)=C(N)Oc3cc4c(cc32)OCO4)cc2c1OCO2 (stereo not given)
growth (%): 45.7
//
Compound: COc1cc(OC)c(Cl)cc1N
growth (%): 100

In: State its growth for this compound: COc1cc(NC(=O)CSc2nc3ccc(Cl)cc3c(=O)n2-c2ccccc2)cc(OC)c1OC
Out: 99.9

* * *

Please go through the items and note down their growth.
# Test system: SK-MEL-2 melanoma
# Run description: NCI-60 one-dose screen, 48 h (100 = growth as untreated, 0 = no growth, -100 = all killed)
# Condition notes: 10 µM unless noted
About 83,000 compounds went through this panel and 20% of them were active in at least one assay; those are over-represented in the sample as a whole.
Give bare numbers, in %.

Example entries begin here.
Compound: Cc1ccncc1NC=O
Observed measurement: 108

Compound: CCOC(=O)C#Cc1c(C(=O)OCC)nnn1[C@@H]1O[C@H](COC(C)=O)[C@@H](OC(C)=O)[C@H]1OC(C)=O
Observed measurement: 95.8

Compound: C[N+](C)(C)CC(=O)N/N=C\c1ccco1
Observed measurement: 111

Compound: Cc1ccc(C(CN(C)C)C(=O)c2ccccc2)cc1 (stereo not given)
Observed measurement: 49.7

Fill in growth for each of the 6 compounds listed.
1. COc1ccccc1CNCCCN1C(=O)c2ccc3c4c(ccc(c24)C1=O)C(=O)N(CCCNCCCN)C3=O
2. COc1ccc(-c2cc(-c3ccc(OC)cc3)c3sc(=O)[nH]c3n2)cc1
3. COc1cc(OC)cc(-c2ccc(-c3ccc(C(=N)N)s3)s2)c1
4. Cc1cc(O)ccc1Sc1ccccc1[N+](=O)[O-]
5. c1ccc(-c2ccc(-c3ccccc3)[nH]2)cc1
6. CCN1CCN(Cc2ccc(NC(=O)Nc3ccc(-n4ccc5c(NC(=O)c6ccccc6)nccc54)cc3)cc2C(F)(F)F)CC1

Out:
[-47.3, 103, -85.4, 99.4, 98.7, -31.5]

* * *

# Tested on: HT29 colon
# Run description: NCI-60 one-dose screen, 48 h (100 = growth as untreated, 0 = no growth, -100 = all killed)
# Condition notes: 10 µM unless noted
About 83,000 compounds went through this panel and 20% of them were active in at least one assay; those are over-represented in the sample as a whole.
Assay metric: growth (%)
Answers are plain numbers, in %.

Example entries begin here.
Molecule: CC1(C)CN(CCNc2nccc(-c3c(-c4cccc(O)c4)nc4sccn34)n2)S(=O)(=O)N1
Experimental target: HT29 colon
Unit descriptor: %
growth: 54.4

Molecule: Nc1c(Br)cc2c(c1Br)Cc1cc(Cl)ccc1-2
Experimental target: HT29 colon
Unit descriptor: %
growth: 111

Molecule: CCOC(=O)c1ccc2c(c1)[n+](=O)c(C(=O)c1ccc3ccccc3c1)c(C(F)(F)F)n2[O-]
Experimental target: HT29 colon
Unit descriptor: %
growth: -97.4

Fill in growth for each of the 2 molecules listed.
1. CN1C(=O)N(C)C2C1NN=c1s/c(=C\c3ccc(Br)cc3)c(=O)n12 (stereo not given)
2. CC(=O)CC(c1ccc([N+](=O)[O-])cc1)c1c(O)c2ccccc2oc1=O (stereo not given)

Out:
1. 10.7
2. 106

Fill in growth for each of the 2 molecules listed.
1. FC(F)(F)c1cc(-c2nnc3n2N=C(Cl)CS3)cc(C(F)(F)F)c1
2. O=C1OCC2=C1C(c1ccccc1)c1cc3c(cc1N2CCO)CCC3 (stereo not given)

Out:
1: 113; 2: 6.75

Fill in growth for each of the 3 molecules listed.
1. CCCCCCCCN=C(NCCCCCCCC)SCc1cccc2ccccc12
2. COc1cc2c(=O)n(CCCN(C)C)c3c4cc[nH]c4ncc3c2cc1OC
3. O=C(/C=C/c1ccco1)c1ccccc1O

Out:
[-24.4, 16.2, 112]

* * *

# Test system: ACHN renal
# Run description: NCI-60 one-dose screen, 48 h (100 = growth as untreated, 0 = no growth, -100 = all killed)
# Condition notes: 10 µM unless noted
The panel holds about 83,000 compounds, 20% with a hit somewhere; the sample as a whole holds those more often.
Binary call on growth with cut-off 70%: strictly below means t, and equality or higher means f.

The following molecules have reported results that may help.
Molecule: COc1cc(OC)c(C(=O)/C=C/c2cccc(OC(C)=O)c2)cc1CC=C(C)C
Answer label: f
--
Molecule: CSc1ccc(/C=C2\C=C(CC(=O)NCc3ccc(C(=O)c4ccccc4)cc3)c3cc(F)ccc32)cc1
Answer label: t
--
Molecule: O/N=C/c1ccncc1
Answer label: f
--
Molecule: CC[C@H](C)[C@H](N)C(=O)O
Answer label: f

In: Please check: growth for COc1cc2ncnc(Nc3ccc(S(=O)(=O)Nc4nccs4)cc3)c2cc1OCCCN1CCOCC1 , strictly under 70% or not?
Out: f

In: Please check: growth for O=C1/C(=C/c2ccccc2)SC(=Nc2ccccc2)N1Nc1ccccc1 , strictly under 70% or not?
Out: t

In: Please check: growth for CSC1=N/C(=C\c2cccc(OCc3ccc(Cl)cc3)c2)C(=O)N1 , strictly under 70% or not?
Out: f

In: Please check: growth for COc1ccc(C(=O)OC2C(OC3C(O)COC(O[C@H]4C[C@H]5[C@@H]6CC=C7C[C@@H](O)CC[C@]7(C)[C@H]6CC[C@]5(C)[C@H]4[C@H](C)C(=O)CCC(C)C)C3OC(=O)C(C)C)OCC(O)C2O)cc1 (some centres undefined) , strictly under 70% or not?
Out: t

* * *

# Tested on: CCRF-CEM leukemia
# Run description: NCI-60 one-dose screen, 48 h
# Condition notes: 10 µM unless noted
# Experimental: Growth inhibition of the CCRF-CEM human tumor cell line is measured as a screen for anti-cancer activity. Cells are grown in 96 well plates and exposed to the test compound for 48 hours. Compounds are tested at a single concentration, which is 10^-5 M for most compounds. The reported endpoint is percent growth (GI% or GIPRCNT), where numbers from 0 - 100% represent growth inhibition, and numbers from -100% - 0 represent cell death. For example, a value of 40 represents 60% growth inhibition. […]
This is part of a sample that, as a whole, favours compounds with a hit. Of some 83,000 tested, about 20% had one in any assay. The source made the active and inactive calls. The calls were made as follows: active = growth percent below 10; inactive = the rest.
Bench note: report the call from true (active), false (inactive)

Compound: CCN1C(=O)C(C)C=C(C)C=C1C (stereo not drawn)
Answer label: false
--
Compound: COc1ccc2[nH]cc(C3(c4c[nH]c5ccc(OC)cc45)C(=O)Nc4ccc(F)cc43)c2c1
Answer label: false
--
Compound: CCCCCN(CCCCC)C(=O)C(CCC(=O)O)NC(=O)c1ccc(Cl)c(Cl)c1 (stereo not drawn)
Answer label: false

In: // param item: NC(N)=N/N=C/c1cccc(Cl)c1Cl ; yields the recorded call
Out: false

In: // param item: O=C1C=CN2C(=O)CC=CC2[C@@H]1O (stereo partly drawn) ; yields the recorded call
Out: false

In: // param item: O=P(O)(O)C(O)(Cc1cccnc1)P(=O)(O)O ; yields the recorded call
Out: false

In: // param item: Nc1ncnc2c1N=C(c1ccc3c(c1)OCO3)CC(c1ccc(Cl)cc1)N2 (stereo not drawn) ; yields the recorded call
Out: true

In: // param item: Nc1nc(NC2CC2)cc(-c2cccc(Cl)c2Cl)n1 ; yields the recorded call
Out: false

In: // param item: C[Si](C)(C)C(c1ccccc1)c1ccccc1 ; yields the recorded call
Out: false

In: // param item: COc1ccc(/C=C/C(=O)CCC(=O)O)cc1OC ; yields the recorded call
Out: false

In: // param item: COc1ccc2nc3ccccc3c(NCc3ccc(C)cc3)c2c1 ; yields the recorded call
Out: true

In: // param item: CCNC(=O)c1ccc2c(c1)nc(-c1ccc(Cl)cc1)n2-c1cc(C(C)(C)C)[nH]n1 ; yields the recorded call
Out: false
